conditions: in ethyl acetate, 318.15 K

STRUCTURE_SMILES: CC[C@@H](C(N)=O)N1CCCC1=O
solubility (mole fraction): 0.0194

---

settings: in ethyl acetate, 293.15 K
ENDPOINT: solubility (mole fraction)

STRUCTURE_SMILES: CC[C@@H](C(N)=O)N1CCCC1=O
ENDPOINT: solubility (mole fraction)
OBS_VALUE: 0.00676

---

details: in 1,4-dioxane, 303.15 K

STRUCTURE_SMILES: CC[C@@H](C(N)=O)N1CCCC1=O
solubility (mole fraction): 0.014

---

conditions: in acetone, 298.15 K

STRUCTURE_SMILES: CC[C@@H](C(N)=O)N1CCCC1=O
solubility (mole fraction): 0.014

Data provenance is BigSolDB 2.1.
